Molecular target: p110β/p85α (Homo sapiens)
Sequence (P42338 whole entry): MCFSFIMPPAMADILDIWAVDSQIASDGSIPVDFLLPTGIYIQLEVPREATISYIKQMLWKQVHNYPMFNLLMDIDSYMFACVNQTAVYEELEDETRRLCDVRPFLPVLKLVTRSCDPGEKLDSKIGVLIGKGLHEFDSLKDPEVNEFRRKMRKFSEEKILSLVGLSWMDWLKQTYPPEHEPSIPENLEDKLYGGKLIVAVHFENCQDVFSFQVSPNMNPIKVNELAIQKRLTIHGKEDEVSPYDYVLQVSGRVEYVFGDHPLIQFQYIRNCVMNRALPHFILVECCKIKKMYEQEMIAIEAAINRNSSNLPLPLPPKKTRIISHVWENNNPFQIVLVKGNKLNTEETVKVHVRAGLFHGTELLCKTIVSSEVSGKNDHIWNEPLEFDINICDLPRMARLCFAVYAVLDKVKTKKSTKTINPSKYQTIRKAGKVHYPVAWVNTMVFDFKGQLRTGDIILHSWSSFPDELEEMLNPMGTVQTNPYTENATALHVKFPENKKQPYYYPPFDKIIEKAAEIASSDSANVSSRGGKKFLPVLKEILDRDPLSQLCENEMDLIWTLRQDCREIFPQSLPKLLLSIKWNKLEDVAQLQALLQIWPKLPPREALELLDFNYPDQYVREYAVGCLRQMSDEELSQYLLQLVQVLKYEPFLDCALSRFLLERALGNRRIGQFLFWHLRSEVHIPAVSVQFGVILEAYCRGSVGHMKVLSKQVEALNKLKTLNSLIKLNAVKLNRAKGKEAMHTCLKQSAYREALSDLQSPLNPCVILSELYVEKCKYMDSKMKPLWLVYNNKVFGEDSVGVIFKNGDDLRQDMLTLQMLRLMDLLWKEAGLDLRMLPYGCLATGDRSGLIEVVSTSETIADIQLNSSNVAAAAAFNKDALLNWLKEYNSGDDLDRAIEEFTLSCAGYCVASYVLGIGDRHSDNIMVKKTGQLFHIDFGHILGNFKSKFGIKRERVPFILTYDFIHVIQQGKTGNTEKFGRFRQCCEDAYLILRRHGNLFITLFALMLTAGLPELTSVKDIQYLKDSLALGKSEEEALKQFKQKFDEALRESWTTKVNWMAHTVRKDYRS
Sequence (P27986 2-724 partner): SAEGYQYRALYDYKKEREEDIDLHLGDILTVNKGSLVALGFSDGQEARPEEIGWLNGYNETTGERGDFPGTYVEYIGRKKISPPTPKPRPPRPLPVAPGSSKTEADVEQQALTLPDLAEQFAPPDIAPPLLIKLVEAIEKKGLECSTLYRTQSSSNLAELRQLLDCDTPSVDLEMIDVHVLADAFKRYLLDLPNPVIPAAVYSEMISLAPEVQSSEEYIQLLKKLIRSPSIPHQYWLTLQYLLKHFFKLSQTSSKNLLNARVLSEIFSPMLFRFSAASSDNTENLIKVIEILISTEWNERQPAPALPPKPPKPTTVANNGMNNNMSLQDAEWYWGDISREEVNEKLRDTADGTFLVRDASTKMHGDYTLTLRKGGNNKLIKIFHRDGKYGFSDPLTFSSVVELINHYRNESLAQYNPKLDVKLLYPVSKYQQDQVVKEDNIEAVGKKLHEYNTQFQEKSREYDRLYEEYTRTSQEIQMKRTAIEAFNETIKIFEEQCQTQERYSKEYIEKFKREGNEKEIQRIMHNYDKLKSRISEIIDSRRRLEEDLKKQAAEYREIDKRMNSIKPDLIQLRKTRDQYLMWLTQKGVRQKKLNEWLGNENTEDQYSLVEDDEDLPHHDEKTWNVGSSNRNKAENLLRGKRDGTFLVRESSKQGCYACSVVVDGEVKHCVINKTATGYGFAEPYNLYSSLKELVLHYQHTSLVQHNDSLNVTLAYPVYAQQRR
Assay: Transcreener KINASE Assay, kinase inhibition of p110β/p85α
Format: biochemical
Conditions: 1 uM test compound
Protocol: PI3K kinases including p110α/p85α, p110δ/p85α and p110γ are purchased from Invitrogen, and p110β/p85α is from Millipore. Primary screening data and IC50 values are measured using Transcreener™ KINASE Assay (Bellbrook, Catalog #3003-10K). […] It is a universal, homogenous, high throughput screening (HTS) technology using a far-red, competitive fluorescence polarization immunoassay based on the detection of ADP to monitor the activity of enzymes that catalyze group transfer reactions. […]
Tick 1 if PI3Kβ IH % @ 1 uM is 60% or greater. Tick 0 if PI3Kβ IH % @ 1 uM is less than 60%.

compound	label
C[S@+]([O-])c1c[nH]c2ncnc(N3C[C@@H](C#N)C[C@H]3c3nn4ccc(Cl)c4c(=O)n3-c3cccc(F)c3)c12	0
C[C@H]1CN(c2ncnc(N)c2C#N)C1c1nn2ccc(Cl)c2c(=O)n1-c1ccccc1 (stereo partly shown)	0
N#Cc1c[nH]c2ncnc(N3CC(F)(F)C[C@H]3c3nn4ccc(Cl)c4c(=O)n3-c3ccccc3)c12	0
Cc1nc(N)nc(N2CC[C@H]2c2nn3ccc(Cl)c3c(=O)n2-c2ccccc2)c1C#N	1
O=c1c2c(Cl)ccn2nc([C@@H]2C[C@H](OCCO)CN2c2ncnc3[nH]cnc23)n1-c1ccccc1	1
Nc1ccc(-c2c[nH]c3ncnc(N4CC[C@H]4c4nn5ccc(Cl)c5c(=O)n4-c4ccccc4)c23)cn1	1
N#Cc1n[nH]c2ncnc(N3CCC[C@H]3c3nn4ccc(Cl)c4c(=O)n3-c3ccccc3)c12	0

====

Target: p110β/p85α (Homo sapiens)
Experiment: Transcreener KINASE Assay, kinase inhibition of p110β/p85α
Type: biochemical
Details: 1 uM test compound
parameter: PI3Kβ IH % @ 1 uM (%)

compound	result_value
N#Cc1cnc(N)nc1N1C[C@@H](C#N)C[C@H]1c1nn2ccc(Cl)c2c(=O)n1-c1ccccc1	89.6
Cc1nc(N)nc(N2CC[C@H]2c2nn3ccc(Cl)c3c(=O)n2-c2ccccc2)n1	21.6
COc1ccc(-c2c[nH]c3ncnc(N4CC[C@H]4c4nn5ccc(F)c5c(=O)n4-c4ccccc4)c23)cn1	93.3
CC(Nc1nc(N)nc2c1C(=O)CCN2)c1cn2ccc(Cl)c2c(=O)n1-c1ccccc1 (stereo not drawn)	97.5
O=c1c2c(Cl)ccn2nc([C@@H]2CCCN2c2ncnc3[nH]cnc23)n1-c1ccccn1	79.4
Cc1ccn2nc([C@@H]3CCCN3c3ncnc(N)c3C#N)n(-c3ccccc3)c(=O)c12	87.0
C[S+]([O-])c1c[nH]c2ncnc(N3CCC[C@H]3c3nn4ccc(Cl)c4c(=O)n3-c3ccccc3)c12 (stereo partly drawn) [Compound 188]	68.7
CC(=O)c1c[nH]c2ncnc(N3CC(=O)C[C@H]3c3nn4ccc(F)c4c(=O)n3-c3ccccc3)c12	22.3
CC(=O)c1c[nH]c2ncnc(N3CCC[C@H]3c3nn4ccc(Cl)c4c(=O)n3-c3ccc(F)cc3)c12	81.7
Nc1nc(N2CCC[C@H]2c2nn3ccc(Cl)c3c(=O)n2-c2ccccc2)n2nccc2n1	59.2
COCC#Cc1c[nH]c2ncnc(N3CC[C@H]3c3nn4ccc(Cl)c4c(=O)n3-c3ccccc3)c12	43.0
CC(=O)c1c[nH]c2ncnc(N[C@H](C)c3cn4ccc(F)c4c(=O)n3-c3ccccc3)c12	86.5
CC(Nc1ncnc2[nH]cc(-c3ccc(N)nc3)c12)c1cc2ncc(Cl)n2c(=O)n1-c1ccccc1 (stereo not drawn)	97.7
CO[C@@H]1C[C@@H](c2nn3ccc(Cl)c3c(=O)n2-c2ccccc2)N(c2ncnc3[nH]cnc23)C1	13.5
C[S+]([O-])c1c[nH]c2ncnc(N3CCC[C@H]3c3nn4ccc(Cl)c4c(=O)n3-c3ccc(F)cc3)c12 (stereo partly drawn)	53.5

====

Molecular target: p110δ/p85α (Homo sapiens, UniProt O00329)
Sequence (O00329 whole entry): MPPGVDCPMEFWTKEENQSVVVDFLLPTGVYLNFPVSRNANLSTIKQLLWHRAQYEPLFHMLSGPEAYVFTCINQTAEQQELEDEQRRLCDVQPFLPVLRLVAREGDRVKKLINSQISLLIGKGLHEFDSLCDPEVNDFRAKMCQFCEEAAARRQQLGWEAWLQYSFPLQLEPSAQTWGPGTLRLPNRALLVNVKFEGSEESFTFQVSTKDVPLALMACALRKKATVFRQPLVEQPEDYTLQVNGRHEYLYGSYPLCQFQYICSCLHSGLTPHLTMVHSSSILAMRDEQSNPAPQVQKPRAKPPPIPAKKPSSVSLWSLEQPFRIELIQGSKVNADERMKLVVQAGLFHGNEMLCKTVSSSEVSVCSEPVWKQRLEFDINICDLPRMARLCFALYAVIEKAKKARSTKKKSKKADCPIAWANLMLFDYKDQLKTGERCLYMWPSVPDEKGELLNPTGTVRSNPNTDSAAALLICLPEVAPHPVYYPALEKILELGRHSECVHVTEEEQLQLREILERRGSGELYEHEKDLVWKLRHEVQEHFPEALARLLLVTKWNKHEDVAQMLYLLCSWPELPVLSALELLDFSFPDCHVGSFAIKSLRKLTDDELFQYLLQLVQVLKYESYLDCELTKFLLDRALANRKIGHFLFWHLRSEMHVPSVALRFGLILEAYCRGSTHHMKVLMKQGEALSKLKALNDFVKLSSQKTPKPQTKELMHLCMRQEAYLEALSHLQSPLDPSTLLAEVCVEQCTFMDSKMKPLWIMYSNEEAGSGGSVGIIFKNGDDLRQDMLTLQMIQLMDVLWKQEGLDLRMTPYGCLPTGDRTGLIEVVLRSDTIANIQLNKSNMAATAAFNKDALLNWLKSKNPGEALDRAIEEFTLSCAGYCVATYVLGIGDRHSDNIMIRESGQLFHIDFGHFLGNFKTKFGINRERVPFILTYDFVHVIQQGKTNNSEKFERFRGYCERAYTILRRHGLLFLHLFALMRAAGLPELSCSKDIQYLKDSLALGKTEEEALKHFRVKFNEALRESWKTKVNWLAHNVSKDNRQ
Sequence (P27986 whole entry partner): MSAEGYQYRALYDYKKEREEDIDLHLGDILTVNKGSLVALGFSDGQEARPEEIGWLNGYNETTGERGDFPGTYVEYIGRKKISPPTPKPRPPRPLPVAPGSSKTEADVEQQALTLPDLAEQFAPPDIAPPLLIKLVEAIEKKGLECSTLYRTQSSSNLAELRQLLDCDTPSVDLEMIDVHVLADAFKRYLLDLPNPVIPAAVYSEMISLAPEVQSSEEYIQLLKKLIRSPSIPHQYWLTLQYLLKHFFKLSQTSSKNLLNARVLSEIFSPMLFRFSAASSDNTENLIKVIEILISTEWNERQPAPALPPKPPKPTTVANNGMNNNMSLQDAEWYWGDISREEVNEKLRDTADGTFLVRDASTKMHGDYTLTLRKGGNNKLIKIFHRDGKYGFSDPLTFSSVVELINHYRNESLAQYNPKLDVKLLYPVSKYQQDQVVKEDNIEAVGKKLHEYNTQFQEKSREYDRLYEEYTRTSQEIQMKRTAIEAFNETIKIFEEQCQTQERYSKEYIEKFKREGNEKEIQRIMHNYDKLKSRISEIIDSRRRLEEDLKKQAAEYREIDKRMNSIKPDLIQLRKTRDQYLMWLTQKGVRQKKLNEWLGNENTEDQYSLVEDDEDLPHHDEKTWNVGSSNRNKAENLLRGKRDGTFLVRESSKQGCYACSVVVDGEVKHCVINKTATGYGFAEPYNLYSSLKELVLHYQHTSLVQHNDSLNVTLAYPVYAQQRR
Test: Transcreener KINASE Assay, kinase inhibition of p110δ/p85α
Type: biochemical
Conditions: 1 uM test compound

compound	PI3Kδ IH % @ 1 uM
C[C@H]1CN(c2nc(N)ncc2C#N)[C@@H]1c1nn2ccc(C#N)c2c(=O)n1-c1ccccc1	91.8%
CN(C)CCn1c([C@@H]2CCCN2c2ncnc3[nH]cnc23)nn2ccc(Cl)c2c1=O	88.3%
COCCO[C@H]1C[C@@H](c2nn3ccc(Cl)c3c(=O)n2-c2ccccc2)N(c2ncnc3[nH]cc(C#N)c23)C1	>100%
C[C@H](Nc1nc(N)ncc1C#N)c1cc2ncc(Cl)n2c(=O)n1-c1ccccc1 (single isomer, unassigned)	>100%
CN(C)C(=O)c1c[nH]c2ncnc(N3CCC[C@H]3c3nn4ccc(Cl)c4c(=O)n3-c3ccccc3)c12	55.1%
CC(C)Cn1c([C@@H]2CCN2c2nc(N)ncc2C#N)nn2ccc(Cl)c2c1=O	98.0%
COc1ccc(-c2c[nH]c3ncnc(N4CC[C@H]4c4nn5ccc(F)c5c(=O)n4-c4ccccc4)c23)cn1	>100%
O=c1c2c(Cl)ccn2nc([C@@H]2C[C@H](F)CN2c2ncnc3[nH]cnc23)n1Cc1ccccn1	>100%
CC(=O)c1cnc(N)nc1NC(C)c1cn2ccc(Cl)c2c(=O)n1-c1cccc(F)c1 (stereo not drawn)	99.7%
CC(Nc1ncnc2[nH]cnc12)c1cc2cccn2c(=O)n1-c1ccccc1 (stereo not drawn)	94.3%
Cc1nc(N2CCC[C@H]2c2nn3ccc(F)c3c(=O)n2-c2ccccc2)c2nc[nH]c2n1	98.7%
Cc1ccn2cc(C(C)Nc3ncnc4[nH]cc(C#N)c34)n(-c3ccccc3)c(=O)c12 (stereo not drawn)	>100%
N#Cc1c[nH]c2ncnc(N3C[C@@H](F)C[C@H]3c3nn4ccc(Cl)c4c(=O)n3-c3cccc(F)c3)c12	>100%
C[S+]([O-])c1c[nH]c2ncnc(N3CCC[C@H]3c3nn4ccc(Cl)c4c(=O)n3-c3cccc(F)c3)c12 (single isomer, unassigned) [Compound 387]	98.2%
N#Cc1c[nH]c2ncnc(N3CC[C@H]3c3nn4ccc(Br)c4c(=O)n3-c3ccccc3)c12	97.6%

====

// reported log10 of IC50 for each item listed
Biological target: p110δ/p85α (Homo sapiens)
Assay: Transcreener KINASE Assay, kinase inhibition of p110δ/p85α
Conditions: read-out: PI3Kδ IC50
parameter: log10 of IC50 (log10 of the value in nM)

compound	log10 of IC50
O=c1c2c(CO)ccn2nc([C@@H]2CCCN2c2ncnc3[nH]cnc23)n1-c1ccccc1 [Compound 177]	1.48
O=c1c2c(Cl)ccn2nc([C@@H]2CCN2c2nc(N3CCOCC3)nc3[nH]cnc23)n1-c1ccccc1 [Compound 114]	1.43
O=c1c2c(Cl)ccn2nc([C@@H]2CCN2c2ncnc3[nH]cc(C#CCO)c23)n1-c1ccccc1 [Compound 165]	0.00
O=c1c2c(Cl)ccn2nc([C@@H]2C[C@@H](F)CN2c2ncnc3[nH]cnc23)n1-c1ccccc1 [Compound 47]	1.41
Nc1ncc(-c2n[nH]c3ncnc(N4CCC[C@H]4c4nn5ccc(Cl)c5c(=O)n4-c4ccccc4)c23)cn1 [Compound 166]	0.00
CC(=O)c1c(C)nc(N)nc1N1CC[C@H]1c1nn2ccc(Cl)c2c(=O)n1-c1ccccc1 [Compound 398]	1.40
CC(Nc1ncnc(N)c1C#N)c1cc2ncc(Cl)n2c(=O)n1-c1ccccc1 (stereo not shown) [Compound 117]	0.70

====

// reported pIC50 for each item listed
Target: p110δ/p85α (Homo sapiens)
Assay: Transcreener KINASE Assay, kinase inhibition of p110δ/p85α
Details: read-out: PI3Kδ IC50
pIC50: −log10 of the molar value.

molecule	pIC50
C#Cc1cnc(N)nc1N1CCC[C@H]1c1nn2ccc(Cl)c2c(=O)n1-c1ccccc1	7.85
N#Cc1cnc(N)nc1N1CCC[C@H]1c1nn2ccc(Cl)c2c(=O)n1C1CCC1	8.22
Nc1nc2c(c(N3CCC[C@H]3c3nn4ccc(F)c4c(=O)n3-c3ccccc3)n1)C(=O)CCN2	8.10
COc1cccc(-n2c([C@@H]3CCN3c3ncnc4[nH]cc(C#N)c34)nn3ccc(Cl)c3c2=O)c1	7.54
NC(=O)c1c[nH]c2ncnc(N3CCC[C@H]3c3nn4ccc(Cl)c4c(=O)n3-c3ccccc3)c12	9.00
C/C(=N\O)c1c[nH]c2ncnc(N3CCC[C@H]3c3nn4ccc(Cl)c4c(=O)n3-c3ccccc3)c12	7.96
N#Cc1c(N)nc(N)nc1N1CCC1c1nn2ccc(Cl)c2c(=O)n1-c1ccccc1 (stereo not drawn)	9.00
C[C@H]1CN(c2nc(N)ncc2C#N)C1c1nn2ccc(Cl)c2c(=O)n1-c1ccc(F)cc1 (stereo partly drawn)	6.80
N#Cc1c[nH]c2ncnc(N3C[C@@H](C#N)C[C@H]3c3nn4ccc(Cl)c4c(=O)n3-c3cccc(F)c3)c12	9.00
CC(=O)c1c[nH]c2ncnc(NC(C)c3cc4ncc(Cl)n4c(=O)n3-c3ccccc3)c12 (stereo not drawn)	8.30
CN(C)CCn1c([C@@H]2CCCN2c2ncnc3[nH]cnc23)nn2ccc(Cl)c2c1=O	6.99
Cc1nc(N)nc(N2CCC2c2nn3ccc(Cl)c3c(=O)n2-c2ccccn2)c1C#N (stereo not drawn)	8.70
N#Cc1cnc(N)nc1N1CCC[C@H]1c1nn2ccc(Cl)c2c(=O)n1-c1ccccc1	9.00
CC(Nc1ncnc2[nH]cc(-c3ccc(N)nc3)c12)c1cc2ncc(Cl)n2c(=O)n1-c1ccccc1 (stereo not drawn)	9.00
Nc1ccc(-c2c[nH]c3ncnc(N4CC[C@H]4c4nn5ccc(Cl)c5c(=O)n4-c4ccccc4)c23)cn1	8.52
